Test system: SW-620
Assay: NCI tumour cell line growth inhibition, 48 h
The source made the active and inactive calls. Rule as the data show it: active = GI50 up to about 1.1 µM and inactive = higher.
Measure: GI50

Before answering, review these 2 worked examples.
{"Compound": "O=C1O/C(=C(/Br)c2ccc(Cl)c(Cl)c2)c2ccccc21", "GI50": "> 10 µM (inactive)"}
{"Compound": "CCOC(=O)N1C(=S)C(C(=O)OC)(C(=O)OC)N=C1C", "GI50": "> 100 µM (inactive)"}

List GI50 for every entry below, keeping the order given.
1. COc1cc(C=O)cc(/C=N/n2c3ccccc3c3ccccc32)c1O
2. CCCCNCCCNCCCNC(=O)c1csc(-c2csc(CCNC(=O)C(NC(=O)C(C)C(O)C(C)NC(=O)C(NC(=O)c3nc(C(CC(N)=O)NCC(N)C(N)=O)nc(N)c3C)C(OC3OC(CO)C(O)C(O)C3OC3OC(CO)C(O)C(OC(N)=O)C3O)c3c[nH]cn3)C(C)O)n2)n1 (centres undefined)

Solution:
1. 9.73 µM (inactive)
2. 15.2 µM (inactive)

The measured values listed here are drawn from ChEMBL document CHEMBL1201862.
